# experimentalTarget: T1, human SIRPγ on stably transfected CHO cells (human, UniProt Q9P1W8 29-387)
# T1 construct: also called Human SIRPγ CHO
# T1 sequence (Q9P1W8 29-387 limits assumed): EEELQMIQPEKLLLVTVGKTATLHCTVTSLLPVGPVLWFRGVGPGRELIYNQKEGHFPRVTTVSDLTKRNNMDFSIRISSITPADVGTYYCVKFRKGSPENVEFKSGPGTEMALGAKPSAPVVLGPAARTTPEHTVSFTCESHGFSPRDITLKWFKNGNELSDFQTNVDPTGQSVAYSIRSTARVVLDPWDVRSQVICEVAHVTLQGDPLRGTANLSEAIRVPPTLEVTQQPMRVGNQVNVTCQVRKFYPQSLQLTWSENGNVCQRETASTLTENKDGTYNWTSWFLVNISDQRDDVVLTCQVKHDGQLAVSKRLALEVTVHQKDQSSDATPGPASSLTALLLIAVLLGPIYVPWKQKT
# testName: flow cytometry, myc-scFv PPE
# maps each entry to its MFI fold change over parental CHO
# number only, unit fold dropped from output

Recorded results for 3 binders are shown here.
Antibody 15 (scFv, V domains shown, scFv in crude PPE, V5/myc-tagged) VH: QVQLVQSGAEVKKPGASVKVSCKASGYSFTSYGISWVRQAPGQGLEWMGWISPYNGNTNYAQKLQGRVTMTRDTSTSTVYMELSSLRSEDTAVYYCAREAYGDYGDYFDYWGQGTLVTVSS VL: DIQMTQSPSSLSASVGDRVTITCRASQGVGDRSAWYQQKPGKAPKLLIYDASNLETGVPSRFSGSGSGTDFTLTISSLQPEDFATYYCQQADTFPYTFGQGTKLEIK ... 17
Antibody 17 (scFv, V domains shown, scFv in crude PPE, V5/myc-tagged) VH: QVQLVQSGAEVKKPGASVKVSCKASGYTFTRNYVHWVRQAPGQGLEWMGRINPNSGGTNTAQKFQGRVTMTRDTSTSTVYMELSSLRSEDTAVYYCARLGDVAVAASFDYWGQGTLVTVSS VL: DIQMTQSPSSLSASVGDRVTITCRASQSISSYLNWYQQKPGKAPKLLIYDASSLESGVPSRFSGSGSGTDFTLTISSLQPEDFATYYCQQANSFPLTFGPGTKVDIK ... 28.3
Antibody 25 (scFv, V domains shown, scFv in crude PPE, V5/myc-tagged) VH: EVQLLESGGGLVQPGGSLRLSCAASGFTVGSWYMSWVRQAPGKGLEWVAHVSDDGSNEFYADSVKGRFTISRDNSKNTLYLQMNSLRAEDTAVYYCARSPGYCSSTSCYRYYGMDVWGQGTTVTVSS VL: DIQMTQSPSSLSASVGDRVTITCRTSQSIGTYLNWYQQKPGKAPKLLIYDASNLPTGVPSRFSGSGSGTDFTLTISSLQPEDFATYYCQNYNSALFGPGTKVDIK ... 19.5

Kindly review the next binder as well.
// query MFI fold change over parental CHO value for entry Antibody 10 (scFv, V domains shown, scFv in crude PPE, V5/myc-tagged) VH: QVQLVQSGAEVKKPGASVKVSCKASGGTFSNYDISWVRQAPGQGLEWMGMIDPSGGSTSYAQKFQGRVTMTRDTSTSTVYMELSSLRSEDTAVYYCARPYSSGWYYFDYWGQGTLVTVSS VL: DIQMTQSPSSLSASVGDRVTITCQASQDIHNYLNWYQQKPGKAPKLLIYDASNLETGVPSRFSGSGSGTDFTLTISSLQPEDFATYYCQQSYNTPPTFGQGTRLEIK 38.3
